test system: MST4; conditions: concentration: 1 μM, replicates: in singlicate; n = 1;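 also: KINOMEscan kinase panel screen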
Each entry below lists one item and its recorded %Inh value.
Answer with a number only, understood to be in %.

Field: example entries. Status: answers known.
CN1CCN(Cc2cccc(-c3ccc4c(Nc5ccc(Oc6ccccc6)cc5)ccnc4c3)c2)CC1 [GW578342]
0
Cl.Cl.NCC(NC(=O)c1cc(-c2ccccc2)c(-c2ccnc3[nH]ccc23)s1)c1ccccc1 (stereo not drawn) [GSK1321561]
27

Then this compound:
IN: I would be grateful if you could share the reported %Inh for `Cn1cc(-c2[nH]c3cc(NC(=O)[C@H](N)C4CCCCC4)cc4c3c2C=NNC4=O)cn1` .
OUT: 97.5

* * *

Each entry below lists one item and its recorded %Inh value.
system: RSK3(Kin.Dom.2-C-terminal); construct: gene RPS6KA2; conditions: concentration: 1 μM, replicates: in singlicate; n = 1
Answer with a number only, understood to be in %.

Field: example entries. Status: answers known.
COc1cc(Nc2nccc(N3CCC(NC(=O)c4cc5ccccc5s4)C3)n2)cc(OC)c1OC (centres unmarked)
0
COc1cc(Nc2nccc(-c3c(-c4cccc(NC(=O)c5c(F)cccc5F)c4)nn4ncccc34)n2)cc(OC)c1OC
0
Cl.c1ccc(-c2ccc3c(Nc4ccc5[nH]ncc5c4)ccnc3c2)nc1
0
CN1CCN(CCCNc2nccc(-c3c(-c4ccc(F)cc4)nn4cc(C(F)(F)F)ccc34)n2)CC1
0
CCCCc1nn2ncccc2c1-c1ccnc(Nc2ccc(N3CCN(C)CC3)cc2)n1
0
COc1cccc(C(=O)Nc2cccc(Oc3ccc4nc(NC(=O)C5CC5)cn4n3)c2)c1
1
COc1cccc(-c2ccc3c(NC(=O)C4CC4)n[nH]c3n2)c1
1
O=C(NC1CCN(c2ccnc(Nc3ccc(F)cc3)n2)C1)c1cc2ccccc2s1 (centres unmarked)
4

IN: I would be grateful if you could share the reported %Inh for `O=C(Nc1cccc(-c2nn3ccccc3c2-c2ccnc(Nc3cccc(C(F)(F)F)c3)n2)c1)c1c(F)cccc1F` .
OUT: 14

IN: I would be grateful if you could share the reported %Inh for `CC(C)(C)c1ccc2nccc(Nc3cccc(O)c3)c2c1` .
OUT: 30

IN: I would be grateful if you could share the reported %Inh for `CCn1c(-c2nonc2N)nc2c(C#CC(C)(C)O)nc(OC[C@H](N)c3ccccc3)cc21` .
OUT: 0

IN: I would be grateful if you could share the reported %Inh for `CN(c1ccc(NC(=O)Nc2cc(C(F)(F)F)ccc2F)cc1)c1ccnc(Nc2ccc(S(N)(=O)=O)cc2)n1` .
OUT: 0

IN: I would be grateful if you could share the reported %Inh for `O=C(Nc1n[nH]c2cc(-c3ccoc3)ccc12)C1CC1` .
OUT: 2

IN: I would be grateful if you could share the reported %Inh for `CN(C)Cc1ccc(-c2ccc3c(Nc4ccc(Oc5ccccn5)cc4)ccnc3c2)o1` .
OUT: 0

IN: I would be grateful if you could share the reported %Inh for `Cn1cc(-c2ccc3c(c2)CCN3C(=O)Cc2cccc(F)c2)c2c(N)ncnc21` .
OUT: 0

IN: I would be grateful if you could share the reported %Inh for `CC(=O)N1CCN(c2ccc(Nc3nccc(-c4sc(C(C)C)nc4-c4cccc(NS(=O)(=O)c5cccc(Cl)c5)c4)n3)cn2)CC1` .
OUT: 0

IN: I would be grateful if you could share the reported %Inh for `Cc1cccc(NC(=O)Nc2ccc(Oc3ncnc4ccn(C)c34)cc2)c1` .
OUT: 0

IN: I would be grateful if you could share the reported %Inh for `Cl.NC(=O)c1cccc(Nc2nccc(Nc3ccc(Oc4c(Cl)cccc4Cl)c(Cl)c3)n2)c1` .
OUT: 0

IN: I would be grateful if you could share the reported %Inh for `Nc1ncc(-c2cccnc2)c2scc(-c3ccc4c(c3)CCN4C(=O)Cc3ccccc3)c12` .
OUT: 0

IN: I would be grateful if you could share the reported %Inh for COc1cccc(NC(=O)NC2CCN(c3ccnc(Nc4cc(OC)c(OC)c(OC)c4)n3)C2)c1 (centres unmarked) .
OUT: 0
